# Test name: Cytotoxicity against in mouse 3T3-Y9/B12 cells at 10 uM
# Assay type: cell-based

- Molecule: "C[C@@H]1C[C@H](O)CCCCCC(=O)Cc2c(Cl)c(O)cc(O)c2C(=O)O1 [HEXAHYDRORADICICOL]"
  Activity: "Toxic"
- Molecule: "C[C@@H]1C[C@H]2O[C@@H]2/C=C\\C=C\\C(=O)Cc2c(Cl)c(O)cc(O)c2C(=O)O1 [RADICICOL]"
  Activity: "Toxic"
- Molecule: "C[C@@H]1C[C@H]2O[C@@H]2/C=C\\C=C\\C(=O)Cc2cc(O)cc(O)c2C(=O)O1 [MONOCILLIN I]"
  Activity: "Toxic"
- Molecule: "COc1cc2c(c(OC)c1)C(=O)O[C@H](C)C[C@H]1O[C@@H]1/C=C\\C=C\\C(=O)C2 [DIMETHYL MONOCILLIN I]"
  Activity: "Toxic"
- Molecule: "C[C@@H]1C[C@H]2O[C@@H]2CCCCC(=O)Cc2cc(O)cc(O)c2C(=O)O1 [TETRAHYDROMONOCILLIN I]"
  Activity: "Toxic"
- Molecule: "C[C@H]1CCC[C@H](O)CCCCCc2cc(O)cc(O)c2C(=O)O1 [ZERANOL]"
  Activity: "Toxic"
- Molecule: "COc1cc(O)c2c(c1Cl)CC(=O)/C=C/C=C\\[C@H]1O[C@@H]1C[C@@H](C)OC2=O [MONOMETHYL RADICICOL]"
  Activity: "Toxic"

Where do the numbers come from? From ChEMBL document CHEMBL1157241.
